TEST SYSTEM: hNPY2R (Homo sapiens, UniProt P49146)
Construct: expressed in transfected cells; host or cells: HEK-293 cells carrying a CRE-luciferase reporter gene
Sequence (P49146 whole entry): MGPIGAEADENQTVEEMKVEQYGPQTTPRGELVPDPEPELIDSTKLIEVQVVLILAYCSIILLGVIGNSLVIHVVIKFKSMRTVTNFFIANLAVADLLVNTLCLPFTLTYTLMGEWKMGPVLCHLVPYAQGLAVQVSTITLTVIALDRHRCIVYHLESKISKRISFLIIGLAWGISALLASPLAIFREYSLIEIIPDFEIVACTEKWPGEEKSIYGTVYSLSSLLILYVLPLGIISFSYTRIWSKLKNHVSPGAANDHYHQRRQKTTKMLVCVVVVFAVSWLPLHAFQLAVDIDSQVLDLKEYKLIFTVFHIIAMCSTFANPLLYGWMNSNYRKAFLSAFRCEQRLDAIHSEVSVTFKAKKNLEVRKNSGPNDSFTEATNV
METHOD: hNPY2R CreLuc reporter gene assay in 0.5% and 100% plasma
Type: cell-based
EXPERIMENTAL PARAMETERS: CreLuc reporter gene assay, 0.5% human plasma; read-out: hNPY2R 0.5% hP
Starred links: 1 amine or outer side, 2 acyl side, 3 side chain; linkers in the order of their positions; H or OH if unused. Non-standard residues stand in square brackets, D forms with d. Groups on a side chain read outwards from the residue. No end group written: not given here. *: point of attachment. C20 diacid = O=C(O)CCCCCCCCCCCCCCCCCCC(=O)*; C18 diacid = O=C(O)CCCCCCCCCCCCCCCCC(=O)*; γGlu = O=C(O)[C@H](CCC(=O)[*:2])N[*:1]; εLys = N[C@@H](CCCCN[*:1])C(=O)[*:2]; AEEA = NCCOCCOCC(=O)O; Aib = CC(C)(N)C(=O)O
Please respond with reported EC50 for every item in the list.
Report as a plain number; the unit nM is understood.

Inquiry: # get_value(readout='EC50', item= H-Y[Aib]EGTFTSDYSI[Aib]LEKQAQ[Aib]EFVEWLIK([εLys-γGlu-γGlu-γGlu-γGlu-γGlu-γGlu-C20 diacid])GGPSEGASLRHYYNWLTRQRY-NH2 [Compound 275] )
Reply text: 19.9

Inquiry: What about this substance? Y[Aib]EGTFTSDYSI[Aib]LEKQAQ[Aib]AFVEWLIK([γGlu-γGlu-γGlu-γGlu-γGlu-C20 diacid])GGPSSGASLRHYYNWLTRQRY-NH2 [Compound 238]
Reply text: 11.6

Inquiry: What about this substance? H-Y[Aib]EGTFTSDYSI[Aib]LEKQAQ[Aib]AFVQWLIK([γGlu-γGlu-γGlu-γGlu-γGlu-C18 diacid])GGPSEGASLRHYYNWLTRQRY-NH2 [Compound 250]
Reply text: 12.2

Inquiry: What about this substance? H-Y[Aib]EGTFTSDYSI[Aib]LEKQAQ[Aib]AFVEWLIK([γGlu-γGlu-γGlu-γGlu-γGlu-C18 diacid])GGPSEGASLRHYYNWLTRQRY-NH2 [Compound 292]
Reply text: 19.9

Inquiry: What about this substance? H-Y[Aib]EGTFTSDYSI[Aib]LERQAQ[Aib]AFVEWLIK([εLys-γGlu-γGlu-γGlu-γGlu-γGlu-γGlu-C20 diacid])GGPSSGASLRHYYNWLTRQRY-NH2 [Compound 131]
Reply text: 18.2

Inquiry: What about this substance? H-Y[Aib]EGTFTSDYSI[Aib]LEKQAQ[Aib]AFVEWLIK([εLys-γGlu-γGlu-γGlu-γGlu-γGlu-γGlu-C20 diacid])GGPSSGASLRHY[Aib]NWLTRQRY-NH2 [Compound 184]
Reply text: 46

Inquiry: What about this substance? H-Y[Aib]EGTFTSDYSI[Aib]LEEQAQ[Aib]AFVEWLIK([εLys-AEEA-AEEA-γGlu-γGlu-γGlu-γGlu-C20 diacid])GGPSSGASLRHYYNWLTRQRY-NH2 [Compound 100]
Reply text: 11.2

Inquiry: What about this substance? H-Y[Aib]EGTFTSDYSI[Aib]LEKQAQ[Aib]EFVQWLIK([γGlu-γGlu-γGlu-γGlu-γGlu-C18 diacid])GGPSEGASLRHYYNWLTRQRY-NH2 [Compound 141]
Reply text: 11.8

Inquiry: What about this substance? Y[Aib]EGTFTSDYSI[Aib]LEKQAQ[Aib]EFVEWLIK([AEEA-AEEA-γGlu-γGlu-γGlu-C18 diacid])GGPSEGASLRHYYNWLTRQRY-NH2 [Compound 284]
Reply text: 18.8

Inquiry: What about this substance? H-Y[Aib]EGTFTSDYSI[Aib]LAAAAQ[Aib]AFVEWLIK([εLys-γGlu-γGlu-γGlu-γGlu-γGlu-γGlu-C20 diacid])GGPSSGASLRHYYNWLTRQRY-NH2 [Compound 20]
Reply text: 19.1
